assay: JC-1 mitochondrial signal, unstimulated adipocytes – cell-based, JC-1 fluorescence, 3T3-L1 adipocytes, 24 h, 100 nL compound, profiling panel (AID 1168); conditions: JC-1 mitochondrial fluorescence, higher = more signal, called active from +8 up or from −8 down; also: test concentration not given here
# z-score >= 0.02 gives 1.0, anything below gives 0.0

Compound	Class Label
O=C1NC(=O)C2C1C=CC(C(O)C1CC=CCC1)N2Nc1ccccn1 (stereo not given)	0.0
CCCC1(C(=O)OC)C=C2C(=C(c3ccccc3)C(=O)C2C)CN1 (stereo not given)	0.0
COc1cc(CO)cc(I)c1O[C@H]1C=C(C(=O)NCCO)C[C@@H](NC[C@@H]2CCCO2)[C@@H]1O	1.0
COc1ccc(-c2cc3c(c(Cc4ccccc4)n2)[Si](C(C)C)(C(C)C)OC3)cn1	0.0
OB1C=CCC(CCc2ccccc2)O1 (stereo not given)	1.0
COC(=O)C(CC#Cc1ccc2c(c1)[C@]1(C(=O)N2)[C@H](c2ccccc2OCCO)N2[C@H](c3ccccc3)[C@H](c3ccccc3)OC(=O)[C@H]2[C@@H]1C(N)=O)C(=O)OC	1.0
CC(C)(C)OC(=O)CC[C@@]1(C(=O)N2CCCCC2)N=C(c2ccc(OCCCO)cc2)O[C@@H]1c1ccccc1	1.0
CO[C@H]1O[C@H](CO)[C@@H](OC(=O)Nc2ccc(Oc3ccccc3)cc2)[C@H](OC(=O)Nc2ccc3c(c2)OCO3)[C@@H]1OC(=O)Nc1ccc2c(c1)OCO2	1.0
CC(C)CN1C(=O)[C@@]2(c3ccc([N+](=O)[O-])cc3)CC(=O)N(C3CCCCC3)[C@@H]2c2ccc(CO)cc21	0.0
COC(=O)C[C@H]1O[C@@H](CCc2ccccc2)[C@@H](C)[C@@H]1[Si](C)(C)c1ccc(OC)cc1	0.0
C#CCN1[C@@H](Cc2ccc(O)cc2)C(=O)O[C@H](Cc2ccccc2)[C@@H]1/C=C/C1CC1	0.0
CCCC=C(CCC)[C@@H](NS(=O)(=O)c1ccc(Cl)cc1)c1ccc(C(=O)OC)cc1	0.0
CCCCN1CC=CC23O[C@@H]4C=CCOC(=O)[C@@H]4[C@H]2C(=O)N(CCCCCCO)[C@@H]3C1=O (stereo not given in full)	0.0
CC(C)[C@@H](C(=O)O)n1cc(C2(O)CCCCC2)nn1	1.0
CC(C)[Si](C#CCCCC#N)(Oc1ccccc1Br)C(C)C	0.0
CC(=O)Nc1cc(Br)ccc1C(=O)NCc1ccccc1	0.0
COCCOC(=O)N1C(=O)[C@@]2(c3cc(C#CC4(O)CCCCCC4)ccc31)[C@H](C(=O)Nc1nc3ccccc3s1)[C@H]1C(=O)O[C@H](c3ccccc3)[C@H](c3ccccc3)N1[C@@H]2c1ccc(OCCO)cc1	0.0
O=C(O)[C@@]1(CCS(=O)(=O)c2ccccc2)N=C(c2ccc(OCCCO)cc2)O[C@H]1c1ccccc1	0.0
Cc1ccc(S(=O)(=O)N2C[C@@H](C(=O)O)[C@H](Sc3ccccc3)C[C@H]2c2ccccc2)cc1	0.0
COC(=O)[C@@]1(Cc2ccc(OC)cc2)[C@H]2c3cc(C(=O)N4CCCC4)n(CCSCCO)c3C[C@H]2CN1C(=O)c1ccccc1	0.0
CN(C)CCCC[C@@H]1NC(=O)[C@H]2C[C@@H](C(=O)NCCCCCN)[C@@H](c3cccc(OCCO)c3)N2C1=O	1.0
C=CCNC(=O)[C@H]1[C@@H]2C(=O)O[C@@H](c3ccccc3)[C@@H](c3ccccc3)N2[C@@H](c2ccc(OCCO)cc2)[C@]12C(=O)Nc1ccc(C#CCC(C(=O)OC)C(=O)OC)cc12	1.0
CCOC(=O)C1=CC[C@H]2C(=O)N(c3ccccc3)C(=O)[C@@H]12	0.0
[N-]=[N+]=Nc1ccccc1C[C@]1(C(=O)NCc2ccccc2)N=C(c2ccc(OCCCO)cc2)O[C@H]1c1ccccc1N=[N+]=[N-]	0.0
COc1ccc(C#Cc2ccc3c(c2)[C@]2(C(=O)N3)[C@H](c3ccc(O)cc3)N3[C@H](c4ccccc4)[C@H](c4ccccc4)OC(=O)[C@H]3[C@@H]2C(=O)N2CCc3cc(OC)c(OC)cc3C2)cc1	1.0
COCCCNC(=O)[C@@]1(Cc2ccccc2)N=C(c2ccc(OCCCO)cc2)O[C@H]1c1ccccc1CN=[N+]=[N-]	1.0
C=CC[C@]1(C(N)=O)COC(c2ccc(OCCCO)cc2)=N1	1.0
COCCOC(=O)N1C(=O)[C@@]2(c3cc(C#CC4=CCCCC4)ccc31)[C@H](C(N)=O)[C@H]1C(=O)O[C@H](c3ccccc3)[C@H](c3ccccc3)N1[C@@H]2c1ccc(O)cc1	1.0
COC(=O)c1c2oc(c1C(=O)OC)C(=O)N[C@@H](C(C)C)Cn1cc(nn1)C1(CCCCC1)NC(=O)N[C@H](CO)CC2	1.0
CO[C@H]1O[C@H](CO)[C@@H](OC(=O)Nc2ccc(Br)cc2)[C@@H]2OC(=O)[C@H](Cc3cccc(Br)c3)C/C=C/C[C@@H](Cc3cccc(Br)c3)C(=O)O[C@@H]12	1.0

###

biological target: Focal adhesion kinase 1 (Homo sapiens) (UniProt Q05397); test: PTK2 protein binding on printed compound slides – biochemical, small-molecule microarray, 635/667 nm fluorescence, BSA, DTT, primary screen (AID 1130); details: 635 nm fluorescence, higher = more signal;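 also: composite of spot emission at 667 nm and signal to noise over triplicate slides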
Sequence (Q05397 whole entry, looked up): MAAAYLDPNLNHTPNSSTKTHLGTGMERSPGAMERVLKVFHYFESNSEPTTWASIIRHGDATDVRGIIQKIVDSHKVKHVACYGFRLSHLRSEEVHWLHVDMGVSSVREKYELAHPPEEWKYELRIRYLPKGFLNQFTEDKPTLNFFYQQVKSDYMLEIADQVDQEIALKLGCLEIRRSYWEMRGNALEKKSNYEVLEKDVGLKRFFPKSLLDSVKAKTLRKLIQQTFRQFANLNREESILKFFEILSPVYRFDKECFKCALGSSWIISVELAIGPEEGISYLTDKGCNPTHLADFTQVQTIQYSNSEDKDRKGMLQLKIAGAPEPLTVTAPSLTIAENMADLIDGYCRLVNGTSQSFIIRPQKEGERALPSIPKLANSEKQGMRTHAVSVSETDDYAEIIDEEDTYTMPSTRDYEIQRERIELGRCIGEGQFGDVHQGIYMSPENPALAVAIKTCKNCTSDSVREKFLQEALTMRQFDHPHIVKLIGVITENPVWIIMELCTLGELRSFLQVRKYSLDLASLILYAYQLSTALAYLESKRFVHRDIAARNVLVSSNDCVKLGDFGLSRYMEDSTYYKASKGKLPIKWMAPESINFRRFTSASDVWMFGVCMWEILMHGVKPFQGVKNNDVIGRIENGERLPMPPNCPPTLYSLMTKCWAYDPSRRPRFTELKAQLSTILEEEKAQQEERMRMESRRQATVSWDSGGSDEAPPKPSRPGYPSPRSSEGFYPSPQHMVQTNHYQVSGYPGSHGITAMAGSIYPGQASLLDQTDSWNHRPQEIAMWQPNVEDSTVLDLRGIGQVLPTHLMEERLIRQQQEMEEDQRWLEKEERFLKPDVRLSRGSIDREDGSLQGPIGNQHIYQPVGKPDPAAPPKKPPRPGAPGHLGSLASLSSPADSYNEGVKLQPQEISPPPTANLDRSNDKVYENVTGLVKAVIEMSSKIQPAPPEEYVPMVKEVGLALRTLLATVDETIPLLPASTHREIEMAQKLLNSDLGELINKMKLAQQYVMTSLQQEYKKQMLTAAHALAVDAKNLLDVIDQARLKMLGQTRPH

Compound	composite z-score
COc1cc(CO)cc(I)c1O[C@H]1C=C(C(=O)NCCO)C[C@@H](NC[C@@H]2CCCO2)[C@@H]1O	0.106
COc1ccccc1CN1C(=O)c2ccccc2[C@@H](C(=O)NCc2ccccc2)[C@@H]1c1ccc(CO)cc1	0.377
O=C1OCCC=C[C@H]2OC34C=CCN(CCN5CCOCC5)C(=O)[C@H]3N(CCCCCO)C(=O)[C@@H]4C12 (some centres undefined)	0.398
CN(C)CCCCCCNC(=O)[C@@H]1C[C@@H]2C(=O)N3CCC[C@H]3C(=O)N2[C@@H]1c1ccc(O)cc1	-0.135

###

assay: JC-1 mitochondrial signal, unstimulated myeloma cells – cell-based, JC-1 fluorescence, RPMI8226, 24 h, 100 nL compound, profiling panel (AID 1169); details: JC-1 mitochondrial potential fluorescence, higher = more signal; also: test concentration not given here
# z-score per entry
Readout Kind: z-score

Molecule	Readout Kind	Quantitative Result
COc1cc2c(cc1O)C(c1cccs1)N(Cc1cccc(OC(F)(F)F)c1)CC2 (stereo unspecified)	z-score	-0.774
COc1cc(OC)c(C(O)C2C=CC3C(=O)NC(=O)C3N2Nc2ccccn2)cc1Br (stereo unspecified)	z-score	0.217
NC(=O)[C@@H]1[C@H]2C(=O)O[C@H](c3ccccc3)[C@H](c3ccccc3)N2[C@H](c2ccc(O)cc2)[C@@]12C(=O)Nc1ccc(C#CC3=CCCCC3)cc12	z-score	-0.88
CC(C)NC(=O)[C@@]1(Cc2ccccc2I)c2ccccc2C(=O)N(Cc2ccccc2Cl)[C@H]1c1ccc(CO)cc1	z-score	0.0101
[N-]=[N+]=NCc1ccccc1[C@@H]1OC(c2ccc(OCCCO)cc2)=N[C@]1(CCS(=O)(=O)c1ccccc1)C(N)=O	z-score	-0.875
[N-]=[N+]=Nc1ccccc1[C@H]1OC(c2ccc(OCCCO)cc2)=N[C@@]1(CCS(=O)(=O)c1ccccc1)C(=O)NCc1ccccc1	z-score	-0.929
C#CCN(C/C=C/c1ccccc1)[C@H](CO)c1ccccc1	z-score	-0.746
O=C(CS)NCCCCCNC(=O)[C@H]1C[C@H]2C(=O)NCC(=O)N2[C@H]1c1ccc(O)cc1	z-score	0.415
O=C(O)[C@H](Cc1ccccc1)n1cc(-c2ccccc2)nn1	z-score	0.666
COc1ccc(C#Cc2ccc3c(c2)[C@]2(C(=O)N3)[C@H](c3ccc(O)cc3)N3[C@H](c4ccccc4)[C@H](c4ccccc4)OC(=O)[C@H]3[C@@H]2C(=O)N2CCc3cc(OC)c(OC)cc3C2)cc1	z-score	-0.727
O=C(NC1CC1)[C@@H]1c2ccccc2C(=O)N(C2Cc3ccccc3C2)[C@H]1c1ccc(CO)cc1	z-score	0.0519
O=C1C2C=CC(C(O)c3ccc4c(c3)OCO4)N(Nc3ccc([N+](=O)[O-])cc3)C2C(=O)N1c1ccccc1 (stereo unspecified)	z-score	0.575
C=CC[C@@]1(C(=O)N2CCCCC2)N=C(c2ccc(OCCCO)cc2)O[C@@H]1c1ccccc1CN=[N+]=[N-]	z-score	-1.01
COCC(=C=CC[C@@H](O)c1ccc(OCCO)cc1)C[C@@H](O)c1ccccn1	z-score	0.375
CO[C@H]1O[C@H](CO)[C@@H](OC(=O)Nc2cccc(F)c2)[C@H](OC(=O)Nc2ccccc2)[C@H]1OC(=O)Nc1ccccc1	z-score	-1.33
CN1C(=O)C2C=CC(C(O)c3ccccc3)N(N3CCCCC3)C2C1=O (stereo unspecified)	z-score	0.0583
C=C(CCCC)/C(=C/C[C@@H](OC(C)=O)c1cccc(OCCO)c1)c1cnc2ccccc2c1	z-score	-0.423
CCOc1ccc(N2C(=O)CSC2c2cccc([N+](=O)[O-])c2)cc1 (stereo unspecified)	z-score	-0.127
COc1ccc([Si](C)(C)[C@@H]2[C@@H](CCn3cc([C@H](O)c4ccccc4)nn3)O[C@]3(C(=O)N(Cc4cccc(N5CCC5=O)c4)c4ccccc43)[C@H]2C)cc1	z-score	-0.735
Cc1ccc(/C=C/C=O)cc1	z-score	-0.758
CC(C)CNC(=O)[C@@]1(Cc2ccccc2I)c2ccccc2C(=O)N(Cc2ccccc2C(F)(F)F)[C@H]1c1ccc(CO)cc1	z-score	-0.844
COCCCNC(=O)[C@]1(Cc2ccccc2)N=C(c2ccc(OCCCO)cc2)O[C@@H]1c1ccccc1CN=[N+]=[N-]	z-score	-0.985
Cc1ccc(C2C3C(=O)CC4C(=O)N(c5ccccc5)C(=O)C4C3CN2S(=O)(=O)c2ccc(C)cc2)cc1 (stereo unspecified)	z-score	0.515
COCCOC(=O)N1C(=O)[C@@]2(c3ccccc31)[C@H](C(=O)N1CCCCCCC1)[C@H]1C(=O)O[C@H](c3ccccc3)[C@H](c3ccccc3)N1[C@@H]2c1ccc(OCCO)cc1	z-score	-0.714
CC1CC/C=C\[C@H]2OC34C=CCN(c5ccc6ccccc6c5)C(=O)[C@H]3N(CCO)C(=O)[C@@H]4C2C(=O)O1 (stereo partly specified)	z-score	-0.0138
CCOc1cc(C(O)C2C=CC3C(=O)N(c4ccccc4)C(=O)C3N2Nc2ccc(C(C)C)cc2)ccc1O (stereo unspecified)	z-score	0.41
C=C(CCCC)/C(=C/C[C@H](OC(C)=O)c1ccccc1OCCO)c1cnc2ccccc2c1	z-score	-0.247
CCCCN1CC=CC23O[C@@H]4C=CCCOC(=O)C4[C@H]2C(=O)N(CCCCCO)[C@@H]3C1=O (stereo partly specified)	z-score	0.117
C=C(CCCC)/C(=C/C[C@H](OC(=O)c1ccncc1)c1ccc(OCCO)cc1)c1cc(C(=O)OC)ccc1OC	z-score	-0.281
COCCOC(=O)N1C(=O)[C@@]2(c3cc(C#CC4=CCCCC4)ccc31)[C@H](C(N)=O)[C@H]1C(=O)O[C@H](c3ccccc3)[C@H](c3ccccc3)N1[C@@H]2c1ccc(O)cc1	z-score	-1.22
CS(=O)(=O)CCOC(=O)C1=CC(CCCO)=CC(C2CC2)N(Cc2cc3c(cc2Br)OCO3)C=C1C(=O)OCCS(C)(=O)=O (stereo unspecified)	z-score	-0.41
